These entries and their values trace back to patent EP0052437A1.

Tested on: Corynebacterium pyogenes CY1
readout.name: MIC

Read the entry C/C(=C\C(=O)OCc1ccc(C#N)cc1)CC1OCC(CC2OC2C(C)C(C)O)C(O)C1O (stereo not drawn) [Example 3, p-Cyanobenzyl monate A] and write its reported MIC.
> 80 µg/mL

Provide measured MIC value, entry: C/C(=C\C(=O)OCc1ccccc1C#N)CC1OCC(CC2OC2C(C)C(C)O)C(O)C1O (stereo not drawn) [Example 1, o-Cyanobenzyl monate A]
> 80 µg/mL

Specify reported MIC for the compound shown: C/C(=C\C(=O)OCc1cccc(C#N)c1)CC1OCC(CC2OC2C(C)C(C)O)C(O)C1O (stereo not drawn) [Example 2, m-Cyanobenzyl monate A]
> 80 µg/mL
